Target: T1, rat calcitonin receptor (rat, UniProt P32214 25-516)
T1 construct: whole, on cells; also called rCTR; rat calcitonin (a) receptor
T1 sequence (looked up): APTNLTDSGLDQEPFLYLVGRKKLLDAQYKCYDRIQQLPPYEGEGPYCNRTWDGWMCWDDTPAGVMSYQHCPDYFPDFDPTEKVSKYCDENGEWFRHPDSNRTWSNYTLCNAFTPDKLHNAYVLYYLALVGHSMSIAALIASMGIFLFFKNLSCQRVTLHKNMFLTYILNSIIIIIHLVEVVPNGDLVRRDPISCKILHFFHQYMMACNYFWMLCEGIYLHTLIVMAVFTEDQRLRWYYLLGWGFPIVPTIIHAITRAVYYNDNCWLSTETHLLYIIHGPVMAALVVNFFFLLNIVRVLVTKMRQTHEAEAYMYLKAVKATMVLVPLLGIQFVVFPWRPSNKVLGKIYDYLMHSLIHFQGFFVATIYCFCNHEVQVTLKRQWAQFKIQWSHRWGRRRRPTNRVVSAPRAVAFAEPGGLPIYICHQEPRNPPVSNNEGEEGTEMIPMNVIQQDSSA
Test: SPA competition with 125I-calcitonin, membranes of BHK cells with rat calcitonin receptor (Assay VIII)
Numbered stars: 1 amine (or outer) side, 2 acyl side, 3 side chain; on linkers, the order of the positions; unused ones are H or OH. Bridge positions count the residues as written; N and C are the ends. Side chains are listed from the residue outwards. Ends that are not written are not given here. * marks the point of attachment. C20 diacid = O=C(O)CCCCCCCCCCCCCCCCCCC(=O)*; γGlu = O=C(O)[C@H](CCC(=O)[*:2])N[*:1]; AEEA = NCCOCCOCC(=O)O
QUANTITY: pIC50
Field pIC50 (float): negative decimal logarithm of the concentration in molar.

Lookup result for K([AEEA-γGlu-C20 diacid])CNTATCATQRLANFLRHSSPNFGAIPPSTPVGSNTY-NH2 (disulfide 2-7, synthetic analogue of human amylin; also called compound 53) ; measured pIC50: 7.96
